- studySystem: Internal ribosome entry site (IRES)
- measurementProtocol: Binding affinity to HCV 5'-Alexa488-labeled IRES domain 3 loop RNA at 10 degC after overnight incubation by fluorescence assay
- Design: species or system Hepacivirus hominis
- assayConditions: read-out: Kd
pKd: −log10 of the molar value.
Label 1 when pKd >= 4; otherwise -1.

Below are worked cases with known answers.
querySmiles	classAssignment
CC(=O)Nc1nccc(-c2cccc(NC(=O)CCCCCN)c2)n1	1
CC(=O)Nc1nccc(-c2cccc(NC(=O)CCCN(C)C)c2)n1	1
CC(=O)Nc1nccc(-c2cccc(NC(=O)c3cccnc3)c2)n1	-1
CC(=O)Nc1nccc(-c2cccc(NC(=O)CCCCCNC(=O)[C@@H](N)CN)c2)n1	1

Does "CC(=O)Nc1nccc(-c2cccc(NC(=O)c3nccnc3N)c2)n1" have a reported pKd of at least 4?
-1

###

Recorded measurements of pKd, one per entry
- studySystem: Internal ribosome entry site (IRES)
- measurementProtocol: Binding affinity to HCV 5'-Alexa488-labeled IRES domain 3 loop RNA at 30 degC after overnight incubation by fluorescence assay
- Design: species or system Hepacivirus hominis
- assayConditions: read-out: Kd
Schema: pKd number; meaning minus log10 of the concentration expressed in molar units.

Some entries whose results are on file:
compound	pKd
NCC1O[C@H](O[C@H]2[C@@H](O)[C@H](O[C@H]3[C@H](O)[C@@H](N)C[C@@H](N)[C@@H]3O[C@H]3O[C@H](CN)[C@@H](O)[C@H](O)[C@H]3N)O[C@@H]2CO)[C@H](N)[C@@H](O)[C@@H]1O (some centres not stated)	4.81
CC(=O)Nc1nccc(-c2cccc(NC(=O)CCCCCNC(=O)[C@@H](N)CN)c2)n1	4.56
CC(=O)Nc1nccc(-c2cccc(NC(=O)CCCCCN)c2)n1	4.92
CC(=O)Nc1nccc(-c2cccc(NC(=O)[C@@H](N)CCCCN)c2)n1	5.21
CC(=O)Nc1nccc(-c2cccc(NC(=O)[C@@H](N)CN)c2)n1	4.74

# input compound: "CC(=O)Nc1nccc(-c2cccc(NC(=O)CCCN(C)C)c2)n1" ; wanted: its pKd
4.42

Requested read-out: pKd. Entry: "CC(=O)Nc1nccc(-c2cccc(NC(=O)[C@@H](N)Cc3c[nH]cn3)c2)n1"
4.29

###

- studySystem: Internal ribosome entry site (IRES)
- measurementProtocol: Binding affinity to HCV 5'-Alexa488-labeled IRES domain 3 loop RNA at 5 degC after overnight incubation by fluorescence assay
- Design: species or system Hepacivirus hominis
- assayConditions: read-out: Kd
reportedEndpoint: log10(Kd) (log10 of the value in µM)
log10 Kd, µM

compound	reportedEndpoint	measured
CC(=O)Nc1nccc(-c2cccc(NC(=O)CCCN(C)C)c2)n1	log10(Kd)	1.47

For the compound "CC(=O)Nc1nccc(-c2cccc(NC(=O)CCCCCN)c2)n1" , what log10(Kd) is on record?
1.03

Can you share its log10(Kd)? I mean this compound: "CC(=O)Nc1nccc(-c2cccc(NC(=O)c3nccnc3N)c2)n1"
1.91

Can you look up the measured log10(Kd) of NCC1O[C@H](O[C@H]2[C@@H](O)[C@H](O[C@H]3[C@H](O)[C@@H](N)C[C@@H](N)[C@@H]3O[C@H]3O[C@H](CN)[C@@H](O)[C@H](O)[C@H]3N)O[C@@H]2CO)[C@H](N)[C@@H](O)[C@@H]1O (stereo not given in full) for me?
0.76

I have this compound here, "CC(=O)Nc1nccc(-c2cccc(NC(=O)CCCN)c2)n1" , and I need its recorded log10(Kd).
2.01

###

- Test system: Internal ribosome entry site (IRES)
- measurementProtocol: Binding affinity to HCV 5'-Alexa488-labeled IRES domain 3 loop RNA assessed as change in enthalpy after overnight incubation by fluorescence assay
- assayConditions: Hepacivirus hominis
reportedEndpoint: deltaH (kJ/mol)
Give your result in kJ/mol as a bare value.

See these solved cases before continuing.
compound	readoutUnit	deltaH
CC(=O)Nc1nccc(-c2cccc(NC(=O)[C@@H](N)CCCCN)c2)n1	kJ/mol	-25.7
CC(=O)Nc1nccc(-c2cccc(NC(=O)CCCCCN)c2)n1	kJ/mol	-3.1
NCC1O[C@H](O[C@H]2[C@@H](O)[C@H](O[C@H]3[C@H](O)[C@@H](N)C[C@@H](N)[C@@H]3O[C@H]3O[C@H](CN)[C@@H](O)[C@H](O)[C@H]3N)O[C@@H]2CO)[C@H](N)[C@@H](O)[C@@H]1O (some centres not stated)	kJ/mol	-39.8

Report deltaH for "CC(=O)Nc1nccc(-c2cccc(NC(=O)[C@@H](N)Cc3c[nH]cn3)c2)n1" tested on Internal ribosome entry site (IRES).
-48.5

Request - read-out deltaH | tested on Internal ribosome entry site (IRES) | compound "CC(=O)Nc1nccc(-c2cccc(NC(=O)[C@@H](N)CN)c2)n1"
-40.3

# value lookup — system Internal ribosome entry site (IRES), readout deltaH, item "CC(=O)Nc1nccc(-c2cccc(NC(=O)CCCCCNC(=O)[C@@H](N)CN)c2)n1"
-33.8

Can you look up deltaH on Internal ribosome entry site (IRES) for "CC(=O)Nc1nccc(-c2cccc(NC(=O)CCCN(C)C)c2)n1" ?
-8

###

- Test system: Internal ribosome entry site (IRES)
- measurementProtocol: Binding affinity to HCV 5'-Alexa488-labeled IRES domain 3 loop RNA assessed as gibbs free energy change after overnight incubation by fluorescence assay
- assayConditions: Hepacivirus hominis
reportedEndpoint: deltaG (kcal/mol)
Numeric answer only, unit kcal/mol assumed.

Dear colleague, I am looking for the recorded deltaG of the following compound: "CC(=O)Nc1nccc(-c2cccc(NC(=O)[C@@H](N)CCCCN)c2)n1"
-7.17

For the compound shown here, "CC(=O)Nc1nccc(-c2cccc(NC(=O)[C@@H](N)CN)c2)n1" , give the reported deltaG.
-6.64

Field request: deltaG | item: "CC(=O)Nc1nccc(-c2cccc(NC(=O)[C@@H](N)Cc3c[nH]cn3)c2)n1"
-6.19

Which deltaG reading was recorded for the compound "CC(=O)Nc1nccc(-c2cccc(NC(=O)CCCN(C)C)c2)n1" ?
-6.02

###

- studySystem: Internal ribosome entry site (IRES)
- measurementProtocol: Binding affinity to HCV 5'-Alexa488-labeled IRES domain 3 loop RNA at 20 degC after overnight incubation by fluorescence assay
- Parameters: species or system Hepacivirus hominis
- assayConditions: read-out: Kd
Reported values of Kd for individual entries
Give a bare numeral; the unit µM is implied.

Some entries whose results are on file:
compound	readoutUnit	Kd
CC(=O)Nc1nccc(-c2cccc(NC(=O)[C@@H](N)CCCCN)c2)n1	µM	4.3
CC(=O)Nc1nccc(-c2cccc(NC(=O)CCCN)c2)n1	µM	220
CC(=O)Nc1nccc(-c2cccc(NC(=O)c3cccnc3)c2)n1	µM	659
CC(=O)Nc1nccc(-c2cccc(NC(=O)CN)c2)n1	µM	863
NCC1O[C@H](O[C@H]2[C@@H](O)[C@H](O[C@H]3[C@H](O)[C@@H](N)C[C@@H](N)[C@@H]3O[C@H]3O[C@H](CN)[C@@H](O)[C@H](O)[C@H]3N)O[C@@H]2CO)[C@H](N)[C@@H](O)[C@@H]1O (stereo partly specified)	µM	8.5

# get_value(readout= Kd, system= Internal ribosome entry site (IRES)) for "CC(=O)Nc1nccc(-c2cccc(NC(=O)CCCCCNC(=O)[C@@H](N)CN)c2)n1"
16.8

Which Kd is reported with Internal ribosome entry site (IRES) for this entry: "CC(=O)Nc1nccc(-c2cccc(NC(=O)[C@@H](N)Cc3c[nH]cn3)c2)n1" ?
19.7

// map "CC(=O)Nc1nccc(-c2cccc(NC(=O)c3nccnc3N)c2)n1" to recorded Kd (system: Internal ribosome entry site (IRES))
232

###

- studySystem: Internal ribosome entry site (IRES)
- measurementProtocol: Binding affinity to HCV 5'-Alexa488-labeled IRES domain 3 loop RNA at 5 degC after overnight incubation by fluorescence assay
- Set-up: species or system Hepacivirus hominis
- assayConditions: read-out: Kd
Returns: string. Value is fulfilled if measured Kd is below 9 µM, and not fulfilled if it is greater than or equal to it.

// below: answered compounds
querySmiles	classAssignment
CC(=O)Nc1nccc(-c2cccc(NC(=O)[C@@H](N)CCCCN)c2)n1	fulfilled
CC(=O)Nc1nccc(-c2cccc(NC(=O)c3cccnc3)c2)n1	not fulfilled
CC(=O)Nc1nccc(-c2cccc(NC(=O)CN)c2)n1	not fulfilled
CC(=O)Nc1nccc(-c2cccc(NC(=O)CCCCCNC(=O)[C@@H](N)CN)c2)n1	not fulfilled
CC(=O)Nc1nccc(-c2cccc(NC(=O)[C@@H](N)CN)c2)n1	fulfilled

Okay, now this compound:
Is Kd strictly under 9 µM for the entry "CC(=O)Nc1nccc(-c2cccc(NC(=O)[C@@H](N)Cc3c[nH]cn3)c2)n1" ?
fulfilled

###

- studySystem: Internal ribosome entry site (IRES)
- measurementProtocol: Binding affinity to HCV 5'-Alexa488-labeled IRES domain 3 loop RNA at 10 degC after overnight incubation by fluorescence assay
- Set-up: species or system Hepacivirus hominis
- assayConditions: read-out: Kd
pKd: −log10 of the molar value.
Note to self: values exactly at 5 are 1.0. So pKd at or above 5 is 1.0, below is 0.0.

Some entries whose results are on file:
compound	classAssignment
CC(=O)Nc1nccc(-c2cccc(NC(=O)[C@@H](N)CN)c2)n1	1.0
CC(=O)Nc1nccc(-c2cccc(NC(=O)[C@@H](N)CCCCN)c2)n1	1.0

Quick check: does "CC(=O)Nc1nccc(-c2cccc(NC(=O)CN)c2)n1" have pKd greater than or equal to 5?
0.0

Entry NCC1O[C@H](O[C@H]2[C@@H](O)[C@H](O[C@H]3[C@H](O)[C@@H](N)C[C@@H](N)[C@@H]3O[C@H]3O[C@H](CN)[C@@H](O)[C@H](O)[C@H]3N)O[C@@H]2CO)[C@H](N)[C@@H](O)[C@@H]1O (stereo not given in full) : is its pKd no less than 5?
1.0
